# System: TNF α-production of LPS-stimulated blood cells
# METHOD NOTES: TNF-α production of lipopolysaccharide-stimulated human blood
# Assay type: cell-based
# ASSAY SETUP: undiluted blood; read-out: TNFα* b: Inhibition of TNF α-production of LPS-stimulated blood cells
Assignment: determine reported pIC50 for the given compounds.
Answers are plain numbers, as −log10 of the molar value.

>  <COMPOUND>
C[C@@H]1C[C@H]2[C@@H]3C[C@H](F)C4=CC(=O)C=C[C@]4(C)[C@@]3(F)[C@@H](O)C[C@]2(C)[C@@]1(OC(=O)C(Cl)Cl)C(=O)OCCl

>  <pIC50>
8.40

$$$$
>  <COMPOUND>
COC(=O)C1(OC(=O)C(Cl)Cl)C(C)CC2C3CC(F)C4=CC(=O)C=CC4(C)C3(F)C(O)CC21C (centres unmarked)

>  <pIC50>
8.77

$$$$
>  <COMPOUND>
C[C@H]1C[C@H]2[C@@H]3CCC4=CC(=O)C=C[C@]4(C)[C@@]3(F)[C@@H](O)C[C@]2(C)[C@@]1(OC(=O)C(Cl)Cl)C(=O)OCCl

>  <pIC50>
7.46

$$$$

Lab note: each compound below needs its pIC50 filled in.
1. CCOC(=O)[C@@]1(OC(=O)C(Cl)Cl)CC[C@H]2[C@@H]3CCC4=CC(=O)C=C[C@]4(C)[C@H]3[C@@H](O)C[C@@]21C
2. CCOC(=O)[C@@]1(OC(=O)C(Cl)Cl)[C@@H](C)C[C@H]2[C@@H]3CCC4=CC(=O)C=C[C@]4(C)[C@@]3(F)[C@@H](O)C[C@@]21C
3. CC1CC2C3CC(F)C4=CC(=O)C=CC4(C)C3(F)C(O)CC2(C)C1(OC(=O)C(Cl)Cl)C(=O)SCCl (centres unmarked)
4. CCOC(=O)[C@@]1(OC(=O)C(Cl)Cl)[C@@H](C)C[C@H]2[C@@H]3C[C@H](F)C4=CC(=O)C=C[C@]4(C)[C@@]3(F)[C@@H](O)C[C@@]21C
5. COC(=O)[C@@]1(OC(=O)C(Cl)Cl)[C@@H](C)C[C@H]2[C@@H]3CCC4=CC(=O)C=C[C@]4(C)[C@@]3(F)[C@@H](O)C[C@@]21C

6.99
8.15
7.92
7.85
7.70

* * *

Please go through the items and note down their Mucus production ED50.
# Test system: ovalbumin sensitized and challenged Brown Norway rats
# METHOD NOTES: Airway changes of ovalbumin sensitized and challenged Brown Norway rats, intratracheal administration
# Assay type: in vivo
# ASSAY SETUP: intratracheal, 2 hours prior challenge
Numbers only, in µg/kg.

Could I get Mucus production ED50 for every one of these entries?
1. CCOC(=O)[C@@]1(OC(=O)C(Cl)Cl)CC[C@H]2[C@@H]3CCC4=CC(=O)C=C[C@]4(C)[C@H]3[C@@H](O)C[C@@]21C [Compound 3]
2. C[C@@H]1C[C@H]2[C@@H]3C[C@H](F)C4=CC(=O)C=C[C@]4(C)[C@@]3(F)[C@@H](O)C[C@]2(C)[C@@]1(OC(=O)C(Cl)Cl)C(=O)SCF [Compound 25]

[13.8, 7.42]

* * *

# Tested on: ovalbumin sensitized and challenged Brown Norway rats
# METHOD NOTES: Airway changes of ovalbumin sensitized and challenged Brown Norway rats, intratracheal administration
# Format: in vivo
# ASSAY SETUP: intratracheal, 2 hours prior challenge; relative response to maximal acetylcholine dose
EXPERIMENTAL ENDPOINT: AHR (airways hyperreactivity) ED50 (µg/kg)
Answers are plain numbers, in µg/kg.

Here are 2 molecules together with their reported answers.
>  <MOLECULE>
CCOC(=O)[C@@]1(OC(=O)C(Cl)Cl)[C@@H](C)C[C@H]2[C@@H]3CCC4=CC(=O)C=C[C@]4(C)[C@@]3(F)[C@@H](O)C[C@@]21C

>  <TARGET SYSTEM>
ovalbumin sensitized and challenged Brown Norway rats

>  <RESULT UNITS>
µg/kg

>  <MEAS VALUE>
19.4

$$$$
>  <MOLECULE>
CCC(=O)O[C@]1(C(=O)SCF)[C@H](C)C[C@H]2[C@@H]3C[C@H](F)C4=CC(=O)C=C[C@]4(C)[C@@]3(F)[C@@H](O)C[C@@]21C [FLU, fluticasone propionate]

>  <TARGET SYSTEM>
ovalbumin sensitized and challenged Brown Norway rats

>  <RESULT UNITS>
µg/kg

>  <MEAS VALUE>
0.14

$$$$

Note: attention shifts to another entry.
Consider the molecule "C[C@@H]1C[C@H]2[C@@H]3C[C@H](F)C4=CC(=O)C=C[C@]4(C)[C@@]3(F)[C@@H](O)C[C@]2(C)[C@@]1(OC(=O)C(Cl)Cl)C(=O)SCF" . State its measured AHR (airways hyperreactivity) ED50.
3.75

The reported measurements were obtained from patent US11447522B2.
